test: Biodistribution in iv dosed Sprague-Dawley rat occipital cortex after 60 mins; assay type: ADME, organism-based; details: read-out: Drug uptake
Recorded metric: tissue uptake at 1 h (%ID/g)
Kindly answer with a numeric value in %ID/g, unit omitted.

tissue uptake at 1 h lookup needed for O=C(OCCF)C1C2CCC(CC1c1ccc(/C=C\[123I])cc1)N2 (stereo unspecified) , thanks.
0.24

* * *

assay: Biodistribution in iv dosed Sprague-Dawley rat pons in presence of citalopram at 6 mg/kg after 60 mins; assay type: ADME, organism-based; design: dose 6 mg/kg, route intravenous; settings: read-out: Drug uptake
Recorded metric: tissue uptake at 1 h
Returns: string containing the number followed by the unit.

Would you mind telling me what tissue uptake at 1 h value was observed for O=C(OCCF)C1C2CCC(CC1c1ccc(/C=C\[123I])cc1)N2 (stereo unspecified) ?
0.14 %ID/g

* * *

assay: Biodistribution in iv dosed Sprague-Dawley rat pre frontal cortex in presence of RTI-113 at 6 mg/kg after 60 mins; type: ADME, organism-based; parameters: dose 6 mg/kg, route intravenous; details: prefrontal cortex, read-out: Drug uptake
Recorded metric: tissue uptake at 1 h (%ID/g)
Give the value in %ID/g but do not write %ID/g after it.

Which tissue uptake at 1 h reading was recorded for the molecule O=C(OCCF)C1C2CCC(CC1c1ccc(/C=C\[123I])cc1)N2 (stereo unspecified) ?
0.28

* * *

assay: Biodistribution in iv dosed Sprague-Dawley rat occipital cortex in presence of reboxetine at 6 mg/kg after 60 mins; format: ADME, organism-based; set-up: dose 6 mg/kg, route intravenous; conditions: read-out: Drug uptake
Recorded metric: tissue uptake at 1 h (%ID/g)
Report as a plain number; the unit %ID/g is understood.

Given the compound O=C(OCCF)C1C2CCC(CC1c1ccc(/C=C\[123I])cc1)N2 (stereo unspecified) , what is its reported tissue uptake at 1 h?
0.23

* * *

assay: Biodistribution in iv dosed Sprague-Dawley rat pre frontal cortex in presence of reboxetine at 6 mg/kg after 60 mins; format: ADME, organism-based; design: dose 6 mg/kg, route intravenous; settings: prefrontal cortex, read-out: Drug uptake
Recorded metric: tissue uptake at 1 h
The number alone won't do; follow it with the unit.

Given the entry O=C(OCCF)C1C2CCC(CC1c1ccc(/C=C\[123I])cc1)N2 (stereo unspecified) , report its measured tissue uptake at 1 h.
0.28 %ID/g

* * *

assay: Biodistribution in iv dosed Sprague-Dawley rat hypothalamus in presence of reboxetine at 6mg/kg after 60 mins; format: ADME, organism-based; conditions: read-out: Drug uptake
Recorded metric: tissue uptake at 1 h
Kindly report the value followed by its unit.

Look at this compound and give its reported tissue uptake at 1 h. O=C(OCCF)C1C2CCC(CC1c1ccc(/C=C\[123I])cc1)N2 (stereo unspecified)
0.26 %ID/g

* * *

assay: Biodistribution in iv dosed Sprague-Dawley rat striatum in presence of citalopram at 6 mg/kg after 60 mins; assay type: ADME, organism-based; design: dose 6 mg/kg, route intravenous; conditions: read-out: Drug uptake
Recorded metric: tissue uptake at 1 h (%ID/g)
Response body: numeric value in %ID/g, unit text excluded.

Need tissue uptake at 1 h of O=C(OCCF)C1C2CCC(CC1c1ccc(/C=C\[123I])cc1)N2 (stereo unspecified) , thanks.
0.15

* * *

experiment: Biodistribution in iv dosed Sprague-Dawley rat striatum in presence of reboxetine at 6 mg/kg after 60 mins; type: ADME, organism-based; design: dose 6 mg/kg, route intravenous; settings: read-out: Drug uptake
Recorded metric: tissue uptake at 1 h (%ID/g)
Return type: number; implicit unit %ID/g.

// lookup tissue uptake at 1 h for O=C(OCCF)C1C2CCC(CC1c1ccc(/C=C\[123I])cc1)N2 (stereo unspecified)
0.26
